Assignment: determine reported GI50 for the given compounds.
System: M14 melanoma
EXPERIMENTAL PROTOCOL: NCI tumour cell line growth inhibition, 48 h

O=c1[nH]c2ccccc2n1C1CCNCC1 ... > 100 µM
C/C(=C\C(=O)O[C@H]1[C@@H]2[C@H](C)CC[C@H]2[C@]2(C)O[C@@]1(C1CCCCC1)C[C@H]2OC(=O)CO)c1ccccc1 ... 7.95 µM

Let us examine a further case.
Q. What measured GI50 is associated with "C=CCc1cccc(C=O)c1O" on M14 melanoma?
A. 39.2 µM

====

System: HOP-92 NSCLC
EXPERIMENTAL PROTOCOL: NCI tumour cell line growth inhibition, 48 h; in the data active = GI50 below about 0.43 µM; inactive = the rest
Valid outcomes are listed here; reply with one: active, inactive

N#CC1=C(N)Oc2c(sc3c(Br)cccc23)C1c1ccc([N+](=O)[O-])cc1 (stereo not drawn) ... active

Q. What is the recorded call for this molecule in the test? "CCN1CCN(CCC(=O)Nc2cccc(-n3cc(-c4ccncc4)c(-c4ccc(Cl)c(OC)c4)n3)c2)CC1"
A. inactive

Q. What is the recorded call for this molecule in the test? "Cn1ncnc1[C@@H]1c2n[nH]c(=O)c3cc(F)cc(c23)N[C@H]1c1ccc(F)cc1"
A. inactive

Q. What is the recorded call for this molecule in the test? "CC1(C)N=C(N)N=C(N)N1c1ccc(OCCCNC(=O)Nc2ccc(S(=O)(=O)F)cc2)c(Cl)c1"
A. inactive

Q. What is the recorded call for this molecule in the test? "CC(=O)/C(=C\c1ccc(Cl)cc1)c1ccccc1"
A. active

Q. What is the recorded call for this molecule in the test? "C[C@@H]1CN2[C@H]3[C@@H]1CC[C@]31CCC(=O)O[C@]1(C)[C@H]1CC[C@H]3CCC=C3[C@@H]12"
A. inactive

Q. What is the recorded call for this molecule in the test? "CCCCn1c(=O)[nH]c(N)c([C@@H]2c3c([nH]c(=O)n(CCCC)c3=O)Oc3ccc4ccccc4c32)c1=O"
A. inactive

Q. What is the recorded call for this molecule in the test? "CC(C)=CCC/C(C)=C/CC/C(C)=C/CSC[C@H](NC(=O)CCCCCN1CCN(C)CC1)C(=O)NC1CCCCCC1"
A. inactive
